Experiment: Single dose pharmacokinetic study in mice (iv 4 mg/Kg, po 20 mg/Kg), plasma concentration post-dosing
Type: in vivo, mouse
Conditions: male, C57BL/6, mouse, plasma, iv, 4 mg/kg, mouse, IV 4 mg/Kg, individual mice M1-M3; read-out: C0
measure.name: C0 (ng/mL)
Your answer is read as ng/mL, so omit the unit and give the number.

Exercise: Specify reported C0 for the molecule shown: CC(C)n1ccc(S(=O)(=O)NC(=O)Nc2c3c(cc4c2CCC4)CCC3)n1
Solution: 62300

Exercise: Specify reported C0 for the molecule shown: CC(C)(O)c1coc(S(=O)(=O)NC(=O)Nc2c3c(cc4c2CCC4)CCC3)c1 [MCC_000950_016, reference compound]
Solution: 22700

----------
Would you kindly list MRT last for each of these compounds?
Test: Single dose pharmacokinetic study in mice (iv 4 mg/Kg, po 20 mg/Kg), plasma concentration post-dosing
Type: in vivo, mouse
Conditions: male, C57BL/6, mouse, plasma, iv, 4 mg/kg, mouse, IV 4 mg/Kg, mean of 3 mice; read-out: MRT0-last, Mean IV
Your answer is read as h, so omit the unit and give the number.

Exercise: Specify reported MRT last for the compound shown: CC(C)(O)c1coc(S(=O)(=O)NC(=O)Nc2c3c(cc4c2CCC4)CCC3)c1 [MCC_000950_016, reference compound]
Solution: 2.67

Exercise: Specify reported MRT last for the compound shown: CC(C)n1ccc(S(=O)(=O)NC(=O)Nc2c3c(cc4c2CCC4)CCC3)n1
Solution: 4.13

----------
Assay: Single dose pharmacokinetic study in mice (iv 4 mg/Kg, po 20 mg/Kg), plasma concentration post-dosing
Type: in vivo, mouse
Details: male, C57BL/6, mouse, plasma, po, 20 mg/kg, mouse, PO 20 mg/Kg, 8.00 h post dosing, mean of 3 mice; read-out: Plasma concentration, PO Time 8.00 h, Mean PO
Would you kindly list concentration at 8 h for each of these molecules?
Your answer is read as ng/mL, so omit the unit and give the number.

Exercise: Specify reported concentration at 8 h for the molecule shown: CC(C)(O)c1coc(S(=O)(=O)NC(=O)Nc2c3c(cc4c2CCC4)CCC3)c1 [MCC_000950_016, reference compound]
Solution: 3790

Exercise: Specify reported concentration at 8 h for the molecule shown: CC(C)n1ccc(S(=O)(=O)NC(=O)Nc2c3c(cc4c2CCC4)CCC3)n1
Solution: 18900

----------
Molecular target: NLRP3 inflammasome (Mus musculus, UniProt Q8R4B8)
Sequence (Q8R4B8 whole entry): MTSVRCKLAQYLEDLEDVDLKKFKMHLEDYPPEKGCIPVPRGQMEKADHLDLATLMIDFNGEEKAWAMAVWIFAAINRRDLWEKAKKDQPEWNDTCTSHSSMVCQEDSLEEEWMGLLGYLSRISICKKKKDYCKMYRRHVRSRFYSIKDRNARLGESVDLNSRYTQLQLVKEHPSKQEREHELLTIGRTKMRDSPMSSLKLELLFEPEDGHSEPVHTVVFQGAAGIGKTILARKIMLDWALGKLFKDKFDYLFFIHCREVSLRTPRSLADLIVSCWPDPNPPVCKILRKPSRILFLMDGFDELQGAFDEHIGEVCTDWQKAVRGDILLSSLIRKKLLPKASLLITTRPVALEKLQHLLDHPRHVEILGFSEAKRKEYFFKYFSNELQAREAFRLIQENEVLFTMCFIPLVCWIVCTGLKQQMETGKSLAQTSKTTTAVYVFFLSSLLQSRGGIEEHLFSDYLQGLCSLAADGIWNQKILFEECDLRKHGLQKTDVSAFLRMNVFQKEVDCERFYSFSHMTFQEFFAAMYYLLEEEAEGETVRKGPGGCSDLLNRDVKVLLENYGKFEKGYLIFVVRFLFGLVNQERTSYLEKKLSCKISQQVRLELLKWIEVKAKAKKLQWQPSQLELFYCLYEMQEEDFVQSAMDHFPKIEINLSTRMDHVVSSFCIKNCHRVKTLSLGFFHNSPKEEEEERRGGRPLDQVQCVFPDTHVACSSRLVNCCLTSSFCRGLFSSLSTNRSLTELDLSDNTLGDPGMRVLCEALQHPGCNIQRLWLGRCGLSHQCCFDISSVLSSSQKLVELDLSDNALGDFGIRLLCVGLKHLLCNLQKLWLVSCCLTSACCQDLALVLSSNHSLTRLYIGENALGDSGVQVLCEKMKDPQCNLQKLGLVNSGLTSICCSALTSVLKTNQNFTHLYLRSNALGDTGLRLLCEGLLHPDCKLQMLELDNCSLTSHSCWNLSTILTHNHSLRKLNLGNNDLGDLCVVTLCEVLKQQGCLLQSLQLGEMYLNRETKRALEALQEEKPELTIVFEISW
Test: Inhibition of IL-1β release, NLRP3 inflammasome activation assay in BMDM
Format: cell-based
Conditions: inhibition of IL-1β release, class symbols, read-out: Avg. IL-1β IC50 Murine BMDM
Would you kindly list IC50 for each of these molecules?

Exercise: Specify reported IC50 for the molecule shown: CC(C)(O)c1coc(S(=O)(=O)NC(=O)Nc2c3c(c(Cl)c4c2CCC4)CCC3)c1
Solution: < 100 nM

Exercise: Specify reported IC50 for the molecule shown: CC(C)(O)c1coc(S(=O)(=O)NC(=O)Nc2c3c(cc4c2OCC4)CCC3)c1
Solution: < 100 nM

Exercise: Specify reported IC50 for the molecule shown: CC(C)(O)c1coc(S(=O)(=O)NC(=O)Nc2ccc(C(F)(F)F)cc2C(F)(F)F)c1
Solution: < 1000 nM

Exercise: Specify reported IC50 for the molecule shown: CC(C)(O)c1coc(S(=O)(=O)NC(=O)Nc2c3ccoc3cc3ccoc23)c1
Solution: < 100 nM

Exercise: Specify reported IC50 for the molecule shown: CC(C)(O)c1cc(S(=O)(=O)NC(=O)Nc2c3c(cc4c2CCC4)CCC3)nn1-c1ccccc1
Solution: < 100 nM

----------
Molecular target: NLRP3 inflammasome (Homo sapiens, UniProt Q96P20)
Sequence (Q96P20 whole entry): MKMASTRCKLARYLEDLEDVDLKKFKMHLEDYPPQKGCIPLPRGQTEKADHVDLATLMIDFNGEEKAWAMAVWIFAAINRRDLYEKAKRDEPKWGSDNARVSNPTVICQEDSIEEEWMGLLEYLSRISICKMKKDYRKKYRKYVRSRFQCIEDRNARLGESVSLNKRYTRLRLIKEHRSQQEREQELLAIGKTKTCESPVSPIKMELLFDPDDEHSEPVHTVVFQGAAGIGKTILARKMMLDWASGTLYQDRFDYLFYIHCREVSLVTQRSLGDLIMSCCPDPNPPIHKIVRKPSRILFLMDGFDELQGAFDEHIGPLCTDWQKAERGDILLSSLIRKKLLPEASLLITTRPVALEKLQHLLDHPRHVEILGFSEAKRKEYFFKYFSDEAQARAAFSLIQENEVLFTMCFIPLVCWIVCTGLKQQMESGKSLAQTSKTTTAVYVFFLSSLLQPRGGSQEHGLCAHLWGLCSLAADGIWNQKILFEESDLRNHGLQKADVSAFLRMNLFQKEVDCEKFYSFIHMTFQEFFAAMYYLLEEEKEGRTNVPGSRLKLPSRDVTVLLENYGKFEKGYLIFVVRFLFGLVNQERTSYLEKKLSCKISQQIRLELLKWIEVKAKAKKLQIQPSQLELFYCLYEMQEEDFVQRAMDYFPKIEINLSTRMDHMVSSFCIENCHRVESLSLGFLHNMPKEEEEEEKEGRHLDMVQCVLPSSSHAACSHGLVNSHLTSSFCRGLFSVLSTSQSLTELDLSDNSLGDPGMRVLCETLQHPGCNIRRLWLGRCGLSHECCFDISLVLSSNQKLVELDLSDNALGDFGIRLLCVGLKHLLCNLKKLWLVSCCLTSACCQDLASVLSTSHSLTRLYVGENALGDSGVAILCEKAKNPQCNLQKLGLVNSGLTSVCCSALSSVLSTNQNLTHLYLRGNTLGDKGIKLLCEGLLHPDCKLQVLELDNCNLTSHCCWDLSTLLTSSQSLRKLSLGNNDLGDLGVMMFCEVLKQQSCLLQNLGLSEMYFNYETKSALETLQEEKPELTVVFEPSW
Assay: Inhibition of IL-1β release, NLRP3 inflammasome activation assay in HMDM
Format: cell-based
Conditions: inhibition of IL-1β release, uM, read-out: Avg. IL-1β IC50 HMDM
measure.name: IC50

Exercise: Specify reported IC50 for the compound shown: O=C(Nc1ccc2ncccc2c1)NS(=O)(=O)c1cccc(C2(C(F)(F)F)N=N2)c1
Solution: > 50 µM

----------
Would you kindly list IC50 for each of these compounds?
Target: NLRP3 inflammasome (Mus musculus)
Experiment: Inhibition of IL-1β release, NLRP3 inflammasome activation assay in BMDM
Type: cell-based
Settings: inhibition of IL-1β release, class symbols, read-out: Avg. IL-1β IC50 Murine BMDM

Exercise: Specify reported IC50 for the compound shown: O=C(Nc1c2c(cc3c1CCC3)CCC2)NS(=O)(=O)c1ccc([N+](=O)[O-])cc1
Solution: < 0.1 µM

Exercise: Specify reported IC50 for the compound shown: COc1ccc2c(c1)C(=O)N(CCc1ccc(S(=O)(=O)NC(=O)Nc3c4c(cc5c3CCC5)CCC4)cc1)C(=O)C2(C)C
Solution: < 1 µM

Exercise: Specify reported IC50 for the compound shown: Cc1c2c(c(NC(=O)NS(=O)(=O)c3cc(C(C)(C)O)co3)c3c1CCC3)CCC2
Solution: < 0.1 µM

Exercise: Specify reported IC50 for the compound shown: CC(C)(O)c1coc(S(=O)(=O)NC(=O)Nc2c3c(c(Br)c4c2CCC4)CCC3)c1
Solution: < 0.1 µM

----------
Would you kindly list concentration at 1 h for each of these molecules?
Assay: Single dose pharmacokinetic study in mice (iv 4 mg/Kg, po 20 mg/Kg), plasma concentration post-dosing
Format: in vivo, mouse
Details: male, C57BL/6, mouse, plasma, po, 20 mg/kg, mouse, PO 20 mg/Kg, 1.00 h post dosing, mean of 3 mice; read-out: Plasma concentration, PO Time 1.00 h, Mean PO
Your answer is read as ng/mL, so omit the unit and give the number.

Exercise: Specify reported concentration at 1 h for the molecule shown: CC(C)(O)c1coc(S(=O)(=O)NC(=O)Nc2c3c(cc4c2CCC4)CCC3)c1 [MCC_000950_016, reference compound]
Solution: 30000

Exercise: Specify reported concentration at 1 h for the molecule shown: CC(C)n1ccc(S(=O)(=O)NC(=O)Nc2c3c(cc4c2CCC4)CCC3)n1 [MCC_007840_002]
Solution: 42300

----------
Would you kindly list pIC50 for each of these molecules?
Target: UniProt:Q96P20
Assay: Inhibition of IL-1β release, NLRP3 inflammasome activation assay in HMDM
Type: cell-based
Conditions: select compounds of the first aspect (Table 10), read-out: HMDM IC50 vs NLRP3
Please report pIC50 as the negative decimal logarithm of the molar concentration, giving only the number.

Exercise: Specify reported pIC50 for the molecule shown: Cc1cc(C(=O)NCCc2ccc(S(=O)(=O)NC(=O)Nc3c4c(cc5c3CCC5)CCC4)cc2)no1 [drawing 362]
Solution: 6.72

Exercise: Specify reported pIC50 for the molecule shown: COc1ccc2c(c1)C(=O)N(CCc1ccc(S(=O)(=O)NC(=O)Nc3c4c(cc5c3CCC5)CCC4)cc1)C(=O)C2(C)C [drawing 361]
Solution: 5.64

Exercise: Specify reported pIC50 for the molecule shown: O=C(Nc1c2c(cc3c1CCC3)CCC2)NS(=O)(=O)c1ccc(Cl)cc1 [drawing 366]
Solution: 6.52

Exercise: Specify reported pIC50 for the molecule shown: COc1ccc(Cl)cc1C(=O)NCCc1ccc(S(=O)(=O)NC(=O)Nc2c3c(cc4c2CCC4)CCC3)cc1 [drawing 358]
Solution: 6.85

Exercise: Specify reported pIC50 for the molecule shown: CCC1=C(C)CN(C(=O)NCCc2ccc(S(=O)(=O)NC(=O)Nc3c4c(cc5c3CCC5)CCC4)cc2)C1=O [drawing 360]
Solution: 6.19

Exercise: Specify reported pIC50 for the molecule shown: CC(=O)c1ccc(S(=O)(=O)NC(=O)Nc2c3c(cc4c2CCC4)CCC3)cc1 [drawing 363]
Solution: 6.51

Exercise: Specify reported pIC50 for the molecule shown: O=C(Nc1c2c(cc3c1CCC3)CCC2)NS(=O)(=O)c1ccc2c(c1)CCC2 [drawing 367]
Solution: 5.84

Exercise: Specify reported pIC50 for the molecule shown: Nc1ccc(S(=O)(=O)NC(=O)Nc2c3c(cc4c2CCC4)CCC3)cc1 [drawing 365]
Solution: 6.51

----------
Would you kindly list concentration at 0.5 h for each of these compounds?
Test: Single dose pharmacokinetic study in mice (iv 4 mg/Kg, po 20 mg/Kg), plasma concentration post-dosing
Format: in vivo, mouse
Settings: male, C57BL/6, mouse, plasma, po, 20 mg/kg, mouse, PO 20 mg/Kg, 0.500 h post dosing, mean of 3 mice; read-out: Plasma concentration, PO Time 0.500 h, Mean PO
Your answer is read as ng/mL, so omit the unit and give the number.

Exercise: Specify reported concentration at 0.5 h for the compound shown: CC(C)(O)c1coc(S(=O)(=O)NC(=O)Nc2c3c(cc4c2CCC4)CCC3)c1 [MCC_000950_016, reference compound]
Solution: 30100

Exercise: Specify reported concentration at 0.5 h for the compound shown: CC(C)n1ccc(S(=O)(=O)NC(=O)Nc2c3c(cc4c2CCC4)CCC3)n1
Solution: 50300
